B1: KCNA1 (parent)
chain: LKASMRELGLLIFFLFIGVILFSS

variants of: B1; test: protein stability index of a GFP-peptide fusion (GPS, HEK-293T) (PSI 1-6); higher = more stable; details: c terminus: a fixed tail appended;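 further: lentivirally expressed fusions sorted by FACS into six bins by GFP to DsRed ratio, PSI derived from sequencing read proportions per bin multiplied by bin number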
Consider the following variants and their measured protein stability index readings.
# respond with the number and nothing more

R6H    3.36
K2Y    2.35
K2P    2.02
A3E    1.78
L10G    4.36
F16V    2.07
L21Q    3.29
R6D    3.02

q: Query protein stability index for K2T
a: 2.01

q: Supply protein stability index value. Item: L1C
a: 2.3

q: Dear colleague, please send me the reported protein stability index for L11R when you can.
a: 3.65

q: Given the variant A3H , write its reported protein stability index.
a: 2.89

q: Give a short answer stating reported protein stability index for L11P .
a: 1.89

q: Name the recorded protein stability index of the variant listed here: L1P
a: 1.82

q: Note down protein stability index recorded for A3C
a: 1.92

q: # return recorded protein stability index for entry I17K
a: 2.83

q: Note protein stability index for the variant shown: E7F
a: 1.84
